Molecular target: cyclin D1/cdk 4 enzyme (Homo sapiens, UniProt P11802)
Construct: made in house; host or cells: Sf9 insect cells, recombinant baculovirus
Sequence (P11802 whole entry, species assumed): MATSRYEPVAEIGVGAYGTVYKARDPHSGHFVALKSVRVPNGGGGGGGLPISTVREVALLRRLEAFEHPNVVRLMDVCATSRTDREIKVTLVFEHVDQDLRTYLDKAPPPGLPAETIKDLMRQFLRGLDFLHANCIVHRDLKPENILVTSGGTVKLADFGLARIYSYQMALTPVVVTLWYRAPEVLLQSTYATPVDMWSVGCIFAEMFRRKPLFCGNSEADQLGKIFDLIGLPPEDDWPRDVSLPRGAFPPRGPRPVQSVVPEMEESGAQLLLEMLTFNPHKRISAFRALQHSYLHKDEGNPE
Sequence (P24385 whole entry partner, species assumed): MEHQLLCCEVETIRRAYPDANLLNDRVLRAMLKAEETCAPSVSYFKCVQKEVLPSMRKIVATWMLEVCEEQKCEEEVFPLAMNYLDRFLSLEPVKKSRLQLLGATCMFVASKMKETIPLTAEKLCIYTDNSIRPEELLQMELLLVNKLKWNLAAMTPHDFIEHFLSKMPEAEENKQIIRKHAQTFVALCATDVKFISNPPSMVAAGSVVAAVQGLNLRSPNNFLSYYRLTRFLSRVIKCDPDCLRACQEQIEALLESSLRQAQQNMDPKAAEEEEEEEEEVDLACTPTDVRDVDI
Assay: CDK4 ELISA kinase assay (phospho-Rb ser 795 detection)
Assay type: biochemical
Settings: In Vitro Enzyme Assays, 200 μM ATP, read-out: CDK4 IC50
Measured property: pIC50
Hey, just a heads up that pIC50 is the negative log base 10 of the concentration in molar.

Data request: Sample C[C@@H]1CN(c2ccc(N/C=C3\C(=O)NC(=O)c4ccc(-c5ccsc5)cc43)cc2)C[C@H](C)N1C(=O)CN(C)C [Example 380] — what was its pIC50?
Data returned: 7.00

Data request: Please report the recorded pIC50 for CN1CCN(c2ccc(N/C=C3\C(=O)NC(=O)c4ccc(-c5ccc(C=O)cc5)cc43)cc2)CC1 [Example 115] .
Data returned: 6.89

Data request: Query: pIC50; subject: CN1CCN(c2ccc(N/C=C3\C(=O)NC(=O)c4ccc(-c5ccsc5)cc43)cc2)CC1 [Example 108]
Data returned: 6.92

Data request: May I ask what pIC50 has been recorded for CCCOc1cnc(CNC=C2C(=O)NC(=O)c3ccc(Br)cc32)cc1O [Example 365] ?
Data returned: 7.15

Data request: So what does the record say about pIC50 for CC(=O)Oc1ccc(CN/C=C2\C(=O)NC(=O)c3ccc(Br)cc32)cc1OC(C)=O [Example 54] ?
Data returned: 6.80

Data request: Which pIC50 value belongs to C=C(CN(C)C)C(=O)Nc1ccc(CN/C=C2\C(=O)NC(=O)c3ccc(I)cc32)cc1O [Example 338] ?
Data returned: 7.00
